# Test system: WERI-Rb1 cells
# Protocol Notes: MTS cell viability assay
# Type: cell-based
# Reported Conditions: WERI-Rb1, MTS, 48 h exposure, 5 nM to 50 nM (Figure S3); read-out: IC50
Structures can show the parent of a compound that is named as a salt.

| Compound | IC50 (nM) |
| --- | --- |
| CC[C@@]1(O)C(=O)OCc2c1cc1n(c2=O)Cc2cc3c(CN(C)C)c(O)ccc3nc2-1 [topotecan, Topotecan hydrochloride hydrate] | 10 |
